// provenance: patent US20130165471A1

system: Hep2; experiment: Cytotoxicity, cell viability staining with Alamar Blue; format: cell-based, human; parameters: unit not given here; conditions: Hep2 cells
measured quantity: Cytotoxicity Hep2
Simply state the number, no unit and no words.

What value of measured Cytotoxicity Hep2 is listed for `COc1c(N2CC[C@@H](CN)C2)c(F)cc2c(=O)c3c(O)csc3n(C3CC3)c12` ?
24

What value of measured Cytotoxicity Hep2 is listed for `COc1c(N2CC[C@H](N)C2)c(F)cc2c(=O)c3c(O)c(C(C)=O)sc3n(C3CC3)c12` ?
35

What value of measured Cytotoxicity Hep2 is listed for COc1c(N2CCCC(CN)C2)c(F)cc2c(=O)c3c(O)c(C(N)=O)sc3n(C3CC3)c12 (stereo not drawn) ?
30

What value of measured Cytotoxicity Hep2 is listed for `COc1c(N2CC[C@@H]([C@H](C)N)C2)c(F)cc2c(=O)c3c(O)c(C(C)=O)sc3n(C3CC3)c12` ?
9

What value of measured Cytotoxicity Hep2 is listed for `COc1c(N2CC[C@@H](CNC(C)=O)C2)c(F)cc2c(=O)c3c(O)c(C(C)=O)sc3n(C3CC3)c12` ?
60

What value of measured Cytotoxicity Hep2 is listed for `COc1c(N2CCC(CN)CC2)c(F)cc2c(=O)c3c(O)c(C(C)=O)sc3n(C3CC3)c12` ?
42
